# Tested Target: acetylcholine receptor
# Protocol Description: SPR, AchR immobilised on chip, peptide 10 uM

| Binder | Binding affinity (RU) |
| --- | --- |
| KRVRTK [6mer-1-256] | 125 |
| RENHK [5mer-1138] | 24 |
| RITVR [5mer-802] | 27 |
| RRLYYK [6mer-1-241] | 148 |

src = patent US20250011363A1
